# Protocol Summary: Solubility of active ingredient in water
# Format: physicochemical
# Study Conditions: 23° C., water at pH 7.6
Value Kind: solubility (µg/mL)
Number in µg/mL, nothing else.

Look up and state reported solubility for NCC(CC(=O)O)c1ccc(Cl)cc1 (stereo not shown)
4300
